src = patent US11384060B2

- target.entity: glucagon receptor (GCGR) overexpressed CHO-K1 cells or human primary hepatocytes (Homo sapiens)
- Construct: expressed in transfected cells; host or cells: GCGR overexpressed CHO-K1 cells or human primary hepatocytes (endogenous receptor)
- Sequence (P47871 26-477): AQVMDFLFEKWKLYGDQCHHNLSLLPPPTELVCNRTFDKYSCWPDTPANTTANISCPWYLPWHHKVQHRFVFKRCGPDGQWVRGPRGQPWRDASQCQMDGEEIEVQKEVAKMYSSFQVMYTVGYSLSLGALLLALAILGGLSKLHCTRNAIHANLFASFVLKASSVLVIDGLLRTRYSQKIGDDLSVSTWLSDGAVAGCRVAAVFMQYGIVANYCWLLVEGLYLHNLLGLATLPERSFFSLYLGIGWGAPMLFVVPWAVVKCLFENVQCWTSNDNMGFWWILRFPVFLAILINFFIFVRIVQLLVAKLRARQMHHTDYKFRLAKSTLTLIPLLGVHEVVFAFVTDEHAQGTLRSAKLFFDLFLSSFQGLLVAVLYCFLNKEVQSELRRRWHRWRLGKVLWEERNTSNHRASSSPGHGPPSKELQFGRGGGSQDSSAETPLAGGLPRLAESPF
- assay.comment: Glucagon cAMP inhibition assay (Cisbio cAMP Dynamic 2 HTRF)
- Type: cell-based
Field: IC50 cAMP. Provide a value for each of the compounds that follow.
Answers are plain numbers, in µM.

Reference set (2 entries):
sample.smiles	IC50 cAMP, µM
CC(C)NC(=O)[C@@H](Cc1ccc(-c2cc3ccccc3o2)cc1)Nc1ccc(C(=O)NCCC(=O)O)cc1	9.522
CCOC(=O)CCNC(=O)c1ccc(N[C@@H](Cc2ccccc2)C(=O)Nc2ccc(-c3cc4ccccc4o3)cc2)cc1	0.0643

Please go through the list and note IC50 cAMP for each compound.
1. CCOC(=O)CCNC(=O)c1ccc(N[C@@H](Cc2ccccc2)C(=O)Nc2ccc(C(F)(F)F)cc2)cc1
2. O=C(O)CCNC(=O)c1ccc(N[C@@H](Cc2ccccc2)C(=O)Nc2ccc(-c3ccc(Cl)cc3Cl)cc2)cc1
3. O=C(O)CCNC(=O)c1ccc(N[C@H](Cc2ccc(-c3cc4ccccc4o3)cc2)C(=O)Nc2ccc(C(F)(F)F)cc2)cc1
4. CC(C)COC[C@@H](Cc1ccc(-c2ccc(C(C)(C)C)cc2)cc1)Nc1ccc(C(=O)NCCC(=O)O)cc1

## Result
[5.8, 5.2, 1.947, 1.225]

Please go through the list and note IC50 cAMP for each compound.
1. CC(C)C[C@@H](COc1ccc(-c2ccc(C(F)(F)F)cc2F)cn1)Nc1ccc(C(=O)NCCC(=O)O)cc1
2. CC(C)COC[C@H](Cc1ccc(-c2cccc(C(F)(F)F)c2)cc1)Nc1ccc(C(=O)NCCC(=O)O)cc1
3. CC(C)C[C@@H](Nc1ccc(C(=O)NCCC(=O)O)cc1)C(=O)Nc1ccc(C(F)(F)F)cc1

## Result
1. 0.999
2. 0.726
3. 30.78

====

- target.entity: glucagon receptor (GCGR) overexpressed CHO-K1 cells or human primary hepatocytes (Homo sapiens)
- Construct: expressed in transfected cells; host or cells: GCGR overexpressed CHO-K1 cells or human primary hepatocytes (endogenous receptor)
- assay.comment: Glucagon cAMP inhibition assay (Cisbio cAMP Dynamic 2 HTRF)
- Type: cell-based
Labelling field: enter T if recorded IC50 cAMP is less than 1000 nM. Enter F if it equals or exceeds that cut-off.

sample.smiles	cat
COC(=O)CCNC(=O)c1ccc(N[C@@H](CC(C)C)C(=O)Nc2ccc(-c3cc4ccccc4[nH]3)cc2)cc1	T
Cc1cc(C)c(-c2ccc(NC(=O)[C@H](Cc3ccccc3)Nc3ccc(C(=O)NCCC(=O)O)cc3)cc2)c(C)c1	F
CCOC(=O)CCNC(=O)c1ccc(N[C@H](CC(C)C)C(=O)Nc2ccc(C(F)(F)F)cc2)cc1	F
CC(C)C[C@H](Nc1ccc(C(=O)NCCC(=O)O)cc1)C(=O)Nc1ccc(-c2ccc(C(F)(F)F)cc2)cc1	F
CCCC[C@@H](COc1ccc(-c2ccc(C(F)(F)F)cc2F)cn1)Nc1ccc(C(=O)NCCC(=O)O)cc1	T

## Task Hello, I'm reviewing records and need to know if IC50 cAMP of C[C@@H](Cc1ccc(-c2ccc(C(C)(C)C)cc2)cc1)Nc1ccc(C(=O)NCCC(=O)O)cc1 is below 1000 nM. Could you check?
## Result F

====

- target.entity: glucagon receptor (GCGR) (Homo sapiens)
- Construct: expressed in transfected cells; host or cells: CHO-K1 cells overexpressing GCGR (membrane fractions)
- Sequence (P47871 26-477): as above
- assay.comment: I125-glucagon binding assay (competition, GCGR membrane fractions)
- conditions.used: competition with I125-glucagon 0.0625 nM, membrane fractions of GCGR overexpressed CHO-K1 cells
pIC50: −log10 of the molar value.
# label = rule met if pIC50 >= 7 else rule not met

sample.smiles	cat
CCCC[C@@H](COc1ccc(-c2ccc(Cl)cc2Cl)cc1)Nc1ccc(C(=O)NCc2nnn[nH]2)cc1	rule met
CC[C@H](C)[C@@H](COc1ccc(-c2cc3ccccc3o2)cc1)Nc1ccc(C(=O)NC[C@@H](O)C(=O)O)cc1	rule not met
CCOC(=O)CCNC(=O)c1ccc(N[C@H](COc2ccc(-c3nc4ccccc4o3)cc2)C(C)C)cc1	rule not met
CC[C@H](C)[C@@H](COc1ccc(-c2nnc(C(C)(C)C)o2)c(OC)c1)Nc1ccc(C(=O)NCCC(=O)O)cc1	rule not met

## Task Check if pIC50 >= 7 (inclusive). Item: CCCC[C@@H](Cc1noc(-c2ccc(C(C)(C)C)cc2)n1)Nc1ccc(C(=O)NCCC(=O)O)cc1
## Result rule not met

## Task Check if pIC50 >= 7 (inclusive). Item: CC(C)[C@@H](COc1ccc(-c2nnc(C(F)(F)F)o2)cc1)Nc1ccc(C(=O)NCCC(=O)O)cc1
## Result rule not met

## Task Check if pIC50 >= 7 (inclusive). Item: CCCC[C@@H](COc1ccc(-c2ccc(C(F)(F)F)cc2)cc1)Nc1ccc(C(=O)NCCC(=O)O)cc1
## Result rule not met

## Task Check if pIC50 >= 7 (inclusive). Item: CC[C@H](C)[C@@H](COc1ccc(-c2nnc(C(C)(C)C)o2)cc1)Nc1ccc(C(=O)NCCC(=O)O)cc1
## Result rule not met

## Task Check if pIC50 >= 7 (inclusive). Item: CC(C)[C@@H](COc1ccc(-c2nc3ccccc3s2)cc1)Nc1ccc(C(=O)NCCC(=O)O)cc1
## Result rule met

====

- target.entity: glucagon receptor (GCGR) (Homo sapiens)
- Construct: expressed in transfected cells; host or cells: CHO-K1 cells overexpressing GCGR (membrane fractions)
- assay.comment: I125-glucagon binding assay (competition, GCGR membrane fractions)
measured.property: pIC50
One number for each entry, as −log10 of the molar value.

Reference set (3 entries):
sample.smiles	pIC50
CCOC(=O)CCNC(=O)c1ccc(N[C@H](C(=O)Nc2ccc3cc(OC)ccc3c2)[C@@H](C)CC)cc1	4.94
CC(C)(C)c1nnc(-c2ccc(OC[C@@H](Nc3ccc(C(=O)NCCC(=O)O)cc3)c3ccc(-c4ccc(C(F)(F)F)cc4F)cc3)nc2)o1	6.82
CC(C)COC[C@@H](Cc1ccc(-c2ccc(OC(F)(F)F)cc2)cc1)Nc1ccc(C(=O)NCCC(=O)O)cc1	6.50

Please go through the list and note pIC50 for each compound.
1. CC(C)C[C@@H](COc1ccc(-c2ccc(C(F)(F)F)cc2)cn1)Nc1ccc(C(=O)NCCC(=O)O)cc1
2. CC(C)NC(=O)[C@@H](Cc1ccc(-c2cc3ccccc3o2)cc1)Nc1ccc(C(=O)NCCC(=O)O)cc1
3. CC(C)(C)c1ccc(NC(=O)[C@H](Cc2ccc3ccccc3c2)Nc2ccc(C(=O)NCCC(=O)O)cc2)cc1
4. CCCCC[C@H](Cc1ccc(-c2cc3ccccc3o2)cc1)Nc1ccc(C(=O)NCCC(=O)O)cc1

## Result
1: 6.68; 2: 4.75; 3: 6.14; 4: 6.80

Please go through the list and note pIC50 for each compound.
1. CC(C)[C@@H](COc1ccc(-c2ccc(Cl)cc2Cl)cn1)Nc1ccc(C(=O)NCCC(=O)O)cc1
2. CC(C)CC[C@@H](Cc1ccc(-c2ccc(C(F)(F)F)cc2)cc1)Nc1ccc(C(=O)NCCC(=O)O)cc1
3. COC(=O)CCNC(=O)c1ccc(N[C@@H](CC(C)C)C(=O)Nc2ccc(-c3cc4ccccc4[nH]3)cc2)cc1

## Result
[6.67, 6.71, 5.16]

Please go through the list and note pIC50 for each compound.
1. CC(C)[C@@H](COc1ccc(-c2cc3ccccc3o2)cn1)Nc1ccc(C(=O)NCCC(=O)O)cc1
2. CC(C)C[C@@H](COc1ccc(-c2ccc(C(F)(F)F)cc2F)cn1)Nc1ccc(C(=O)NCCC(=O)O)cc1
3. Cc1nc(OC[C@H](CC(C)C)Nc2ccc(C(=O)NCCC(=O)O)cc2)ccc1-c1cc2ccccc2o1
4. CCCOC[C@H](Cc1ccc(-c2cccc(C(F)(F)F)c2)cc1)Nc1ccc(C(=O)NCCC(=O)O)cc1
5. CC(C)COC[C@H](Cc1ccc(-c2cccc(C(F)(F)F)c2)cc1)Nc1ccc(C(=O)NCCC(=O)O)cc1

## Result
1. 7.29
2. 6.17
3. 6.68
4. 5.88
5. 6.06

Please go through the list and note pIC50 for each compound.
1. CCCCC[C@@H](Cc1ccc(-c2ccc(OC(F)(F)F)cc2)cc1)Nc1ccc(C(=O)NCCC(=O)O)cc1
2. CC(C)COC[C@@H](Cc1ccc(-c2ccc(C(F)(F)F)cc2)cc1)Nc1ccc(C(=O)NCCC(=O)O)cc1

## Result
6.82
6.16

Please go through the list and note pIC50 for each compound.
1. CC(C)COC[C@H](Cc1ccc(-c2cc3ccccc3o2)cc1)Nc1ccc(C(=O)NCCC(=O)O)cc1
2. CC[C@H](C)[C@H](Nc1ccc(C(=O)NCCC(=O)O)cc1)C(=O)Nc1ccc(-c2cc3ccccc3o2)cc1
3. CC[C@H](C)[C@@H](COc1ccc(-c2ccc(Cl)cc2Cl)c(C)n1)Nc1ccc(C(=O)NCCC(=O)O)cc1

## Result
1. 6.32
2. 6.53
3. 6.78

Please go through the list and note pIC50 for each compound.
1. CC(C)[C@H](Nc1ccc(C(=O)NCCS(=O)(=O)O)cc1)C(=O)Nc1ccc(-c2cc3ccccc3o2)cc1
2. CC[C@H](C)[C@@H](COc1ccc(-c2ccc(F)cc2F)cn1)Nc1ccc(C(=O)NCCS(=O)(=O)O)cc1
3. CCCC[C@@H](COc1ccc(-c2cc3ccccc3o2)cn1)Nc1ccc(C(=O)NCCS(=O)(=O)O)cc1
4. CCCC[C@@H](COc1ccc(-c2ccc(C(F)(F)F)cc2Cl)c(C)n1)Nc1ccc(C(=O)NCCC(=O)O)cc1
5. CC[C@H](C)[C@@H](COc1ccc(-c2cc3ccccc3o2)cn1)Nc1ccc(C(=O)NCCC(=O)O)cc1

## Result
5.59
5.28
6.34
7.38
6.68

The reported pIC50 of the compound CC(C)[C@H](Nc1ccc(C(=O)NCCC(=O)O)cc1)C(=O)Nc1ccc(-c2cc3ccccc3o2)cc1 was 6.00
